- Test system: Escherichia coli
- conditionSummary: Concentration 20 uM; ASSAY_TEST Inhibition of Bacterial Growth; detection method Absorption (OD600); MEDIA CAMHB; plate type 384well; NBS; CORNING #3640; time 18 hr
Measured potencies and affinities stand elsewhere.
readoutLabel: Inhibition (%)
State just the number; it will be interpreted in %.

**Query** Recall and state the measured Inhibition for CN(C)CC/C=C1/c2ccccc2COc2ccc(CC(=O)O)cc21.Cl [OLOPATADINE HYDROCHLORIDE] .
**Result** 1.13

**Query** Identify measured Inhibition corresponding to CC1Cc2ccccc2N1NC(=O)c1ccc(Cl)c(S(N)(=O)=O)c1 (stereo not given) [INDAPAMIDE]
**Result** -0.79

**Query** Provide Inhibition value for the following compound: CCCNC(C)C(=O)Nc1ccccc1C.Cl (stereo not given) [PRILOCAINE HYDROCHLORIDE]
**Result** 4.99

**Query** Return value of Inhibition for input CCCCC(=O)O[C@H]1CC[C@H]2[C@@H]3CCc4cc(O)ccc4[C@H]3CC[C@]12C [ESTRADIOL VALERATE] , no commentary.
**Result** 3.72

**Query** Write down Inhibition measured for item C=CCc1ccc(O)c(-c2ccc(O)c(CC=C)c2)c1 [HONOKIOL]
**Result** 4.96

**Query** Determine from records and report Inhibition for N[C@@H](Cc1cc(I)c(Oc2cc(I)c(O)c(I)c2)c(I)c1)C(=O)O [LEVOTHYROXINE]
**Result** -12.96

**Query** Return the recorded Inhibition value; entry: NS(=O)(=O)c1cc2c(cc1Cl)N=CNS2(=O)=O [CHLOROTHIAZIDE]
**Result** -2.82

**Query** For the compound Cc1cn([C@H]2C=C[C@@H](CO)O2)c(=O)[nH]c1=O [STAVUDINE] , give its reported Inhibition.
**Result** 4.38

**Query** Return Inhibition for the following compound: c1ccc2[nH]c(-c3cscn3)nc2c1 [THIABENDAZOLE]
**Result** 1.68

**Query** State, in one line, measured Inhibition of CC(=O)CCCCn1cnc2c1c(=O)n(C)c(=O)n2C [LOMIFYLLINE]
**Result** 5.02

**Query** Supply recorded Inhibition for C[C@H]1[C@@H](OC(=O)CCC(=O)O)O[C@@H]2O[C@@]3(C)CC[C@H]4[C@H](C)CC[C@@H]1[C@@]24OO3 here.
**Result** 12.24

**Query** Please indicate Inhibition recorded for CC#C[C@]1(O)CC[C@H]2[C@@H]3CCC4=CC(=O)CCC4=C3[C@@H](c3ccc(N(C)C)cc3)C[C@@]21C [MIFEPRISTONE]
**Result** -7.81

**Query** Identify Inhibition associated with the compound C=C1/C(=C\C=C2/CCC[C@]3(C)[C@@H]([C@H](C)CCCC(C)(C)O)CC[C@@H]23)C[C@@H](O)C[C@@H]1O [CALCITRIOL]
**Result** 7.51

**Query** // Input: CCCCc1nc(Cl)c(CO)n1Cc1ccc(-c2ccccc2-c2nnn[n-]2)cc1.[K+] [LOSARTAN POTASSIUM] . Output its Inhibition only.
**Result** 5.5

**Query** Output measured Inhibition for this item: COc1cc(C[C@@H](CO)[C@H](CO)Cc2ccc(O)c(OC)c2)ccc1O [(+)-SECOISOLARICIRESINOL]
**Result** -3.86

====

- System: Escherichia coli
- conditionSummary: Concentration 20 uM; ASSAY_TEST Inhibition of Bacterial Growth; detection method Absorption (OD600); MEDIA CAMHB; plate type 384well; NBS; CORNING #3640; time 18 hr
Potency and affinity values are given separately.
readoutLabel: Inhibition (%)
Lab book: enter the figure in %, no units written.

**Query** Name the value of Inhibition reported for Oc1ccc(/C=C/c2cc(O)cc(O)c2)cc1 [RESVERATROL] when tested on Escherichia coli.
**Result** 1.45

**Query** Identify measured Inhibition obtained with Escherichia coli for CSc1ccc2c(c1)N(CCC1CCCCN1C)c1ccccc1S2.Cl (configuration not stated) [THIORIDAZINE HYDROCHLORIDE] .
**Result** 7.48

**Query** Tell me its Inhibition on Escherichia coli: C[C@]12C[C@H](O)[C@H]3[C@@H](CCC4=CC(=O)CC[C@@]43C)[C@@H]1CC[C@@H]2C(=O)CO [CORTICOSTERONE]
**Result** 2.35

**Query** Identify measured Inhibition obtained with Escherichia coli for Cc1ccc(N(CC2=NCCN2)c2cccc(O)c2)cc1 [PHENTOLAMINE] .
**Result** -2.29

**Query** Fetch value of Inhibition on Escherichia coli for Cc1cccc(Nc2ccccc2C(=O)O)c1C [MEFENAMIC ACID] .
**Result** 6.03

**Query** Recall the reported Inhibition of Cn1ccnc1S [METHIMAZOLE] on Escherichia coli and write it down.
**Result** 5.86

**Query** Enter Inhibition (test system Escherichia coli) for CN1C(C(=O)Nc2ccccn2)=C(O)c2ccccc2S1(=O)=O.O
**Result** -5.74

====

- Tested on: Escherichia coli
- conditionSummary: Concentration 20 uM; ASSAY_TEST Inhibition of Bacterial Growth; detection method Absorption (OD600); MEDIA CAMHB; plate type 384well; NBS; CORNING #3640; time 18 hr
Results with a measured potency or affinity are listed apart. Square brackets hold non-standard residues; d marks the D form. Peptide text beside a SMILES is read from it. pGlu = O=C1CC[C@@H](C(=O)O)N1; Thz = O=C(O)[C@@H]1CSCN1
readoutLabel: Inhibition

Below are worked cases with known answers.
Cc1sc(N)c(C(=O)c2cccc(C(F)(F)F)c2)c1C    -1.03%
O=c1c(O[C@@H]2O[C@H](CO)[C@@H](O)[C@H](O)[C@H]2O)c(-c2ccc(O)c(O)c2)oc2cc(O)cc(O)c12    -1.78%
Cl.Clc1cccc(Cl)c1NC1=NCCN1 [CLONIDINE HYDROCHLORIDE]    4.68%
CN(CCO)CC(O)Cn1cnc2c1c(=O)n(C)c(=O)n2C.O=C(O)c1cccnc1 (stereo not drawn) [XANTHINOL NIACINATE]    -0.5%
CC(C)c1ccc2oc3nc(N)c(C(=O)O)cc3c(=O)c2c1    0.07%
Cl.O=C1CN2Cc3c(ccc(Cl)c3Cl)N=C2N1 [ANAGRELIDE HYDROCHLORIDE]    7.21%
Cc1ncc([N+](=O)[O-])n1CCO    2.82%
O=C(O[C@H]1[C@H](Oc2ccccc2COC(=O)C2(O)C=CCCC2=O)O[C@H](CO)[C@@H](O)[C@@H]1O)c1ccccc1 (stereo partly drawn)    0.23%
CCCCN1CCCC1CNC(=O)c1cc(C#N)c2ccccc2c1OC (stereo not drawn) [NAFADOTRIDE]    2.47%
O=C1CC[C@@H](C(=O)N2CSC[C@H]2C(=O)O)N1 [PIDOTIMOD] ([pGlu]-[Thz]-OH)    2.88%

**Query** Report value: Inhibition, system: Escherichia coli, compound: CC(=O)O.CNC(=N)NCCC[C@H](N)C(=O)O [TILARGININE ACETATE]
**Result** 6.22%

**Query** Enter Inhibition (test system Escherichia coli) for O=S(=O)([O-])CCS.[Na+]
**Result** -2.71%

**Query** Fill in: Inhibition on Escherichia coli, entry CCOC(=O)c1ccc(OC(=O)CCCCCN=C(N)N)cc1.CS(=O)(=O)O
**Result** -0.78%

**Query** Tell me its Inhibition on Escherichia coli: CCOC(=O)[C@H](CCc1ccccc1)N[C@@H](C)C(=O)N1Cc2ccccc2C[C@H]1C(=O)O.Cl [QUINAPRIL HYDROCHLORIDE]
**Result** 4.26%

**Query** Check Escherichia coli data and give Inhibition for COc1cc2nc(N(C)CCCNC(=O)C3CCCO3)nc(N)c2cc1OC (stereo not drawn) .
**Result** -0.93%

**Query** Return reported Inhibition for target or system Escherichia coli, item CC[C@@H]1C(=O)OC[C@@H]1Cc1cncn1C.Cl [PILOCARPINE HYDROCHLORIDE] .
**Result** 5.77%

**Query** Enter Inhibition (test system Escherichia coli) for CN(C)[C@@H]1C(=O)C(C(=O)NCN2CCCC2)=C(O)[C@@]2(O)C(O)=C3C(=O)c4c(O)cccc4[C@@](C)(O)C3CC12 (stereo partly drawn)
**Result** 5.47%

**Query** Supply Inhibition measured with Escherichia coli for Cn1nnc2c(C(N)=O)ncn2c1=O [TEMOZOLOMIDE] .
**Result** 6.63%

====

- System: Staphylococcus aureus
- conditionSummary: Concentration 20 uM; ASSAY_TEST Inhibition of Bacterial Growth; detection method Absorption (OD600); MEDIA CAMHB; plate type 384well; NBS; CORNING #3640; time 18 hr
Potency and affinity values are given separately.
Mark yes (1) for reported Inhibition of 10% or greater; mark no (0) for anything smaller.

CN(C)C(=O)Oc1ccc[n+](C)c1.[Br-] [PYRIDOSTIGMINE BROMIDE]    yes (1)
Cl.O.OC[C@H]1O[C@@H](n2cnc3c(N[C@H]4CCC[C@@H]4O)ncnc32)[C@@H](O)C1O (some centres undefined)    no (0)
CN1CCc2cc(Cl)c(O)cc2[C@@H](c2ccccc2)C1.Cl    yes (1)
Cc1ncc([N+](=O)[O-])n1CC(O)CCl (centres undefined)    yes (1)
Cl.O[C@@H](c1cc(C(F)(F)F)nc2c(C(F)(F)F)cccc12)[C@H]1CCCCN1    yes (1)
CCc1c(C)[nH]c2c1C(=O)C(CN1CCOCC1)CC2.Cl (centres undefined) [MOLINDONE HYDROCHLORIDE]    no (0)
CCN(CC)CC1CCCCN1CC(=O)N1c2ccccc2C(=O)Nc2cccnc21 (centres undefined)    no (0)
COc1ccc([C@@H]2Sc3ccccc3N(CCN(C)C)C(=O)[C@@H]2OC(C)=O)cc1.Cl [DILTIAZEM HYDROCHLORIDE]    yes (1)

**Query** Exam item: decide whether the reported Inhibition for CCN(Cc1ccncc1)C(=O)C(CO)c1ccccc1 (centres undefined) [TROPICAMIDE] is at least 10%.
**Result** no (0)
